# System: Streptococcus Pneumonia 5979
Please respond with reported MIC for every item in the list.
Answers are plain numbers, in µg/mL.

>>> meas_value("CC[C@H]1OC(=O)[C@H](C)C(=O)[C@H](C)[C@@H](O[C@@H]2O[C@H](C)C[C@H](N(C)C)[C@H]2O)[C@](C)(OC/C=C/c2ccc(-c3cccs3)s2)C[C@@H](C)C(=O)[C@H](C)[C@H]2NC(=O)O[C@@]21C")
2
>>> meas_value("CC[C@H]1OC(=O)[C@H](C)C(=O)[C@H](C)[C@@H](O[C@@H]2O[C@H](C)C[C@H](N(C)C)[C@H]2O)[C@](C)(OC/C=C/c2ccc3ncc(Br)cc3c2)C[C@@H](C)C(=O)[C@H](C)[C@H]2NC(=O)O[C@@]21C")
2

input: Please give the measured MIC for this molecule: CC[C@H]1OC(=O)[C@H](C)C(=O)[C@H](C)[C@@H](O[C@@H]2O[C@H](C)C[C@H](N(C)C)[C@H]2O)[C@](C)(OC/C=C/c2ncc(-c3cccnc3)s2)C[C@@H](C)C(=O)[C@H](C)[C@H]2NC(=O)O[C@@]21C
output: 4

----------
# System: Streptococcus pyogenes EES61
Exercise: state measured MIC for each of the compounds provided.
Answers are plain numbers, in µg/mL.

>>> meas_value("CC[C@H]1OC(=O)[C@H](C)C(=O)[C@H](C)[C@@H](O[C@@H]2O[C@H](C)C[C@H](N(C)C)[C@H]2O)[C@](C)(OC/C=C/c2nc(-c3cccs3)cs2)C[C@@H](C)C(=O)[C@H](C)[C@H]2NC(=O)O[C@@]21C")
0.01
>>> meas_value("CC[C@H]1OC(=O)[C@H](C)C(=O)[C@H](C)[C@@H](O[C@@H]2O[C@H](C)C[C@H](N(C)C)[C@H]2O)[C@](C)(OC/C=C/c2nc(-c3cccnc3)cs2)C[C@@H](C)C(=O)[C@H](C)[C@H]2NC(=O)O[C@@]21C")
0.01
>>> meas_value("CC[C@H]1OC(=O)[C@H](C)C(=O)[C@H](C)[C@@H](O[C@@H]2O[C@H](C)C[C@H](N(C)C)[C@H]2O)[C@](C)(OCC#Cc2ccc(-c3cc(Cl)cc(Cl)c3)s2)C[C@@H](C)C(=O)[C@H](C)[C@H]2NC(=O)O[C@@]21C")
0.39

Next up:
input: Which MIC is listed for CC[C@H]1OC(=O)[C@H](C)C(=O)[C@H](C)[C@@H](O[C@@H]2O[C@H](C)C[C@H](N(C)C)[C@H]2O)[C@](C)(OC/C=C/c2cncc(-n3ccnc3)c2)C[C@@H](C)C(=O)[C@H](C)[C@H]2NC(=O)O[C@@]21C ?
output: 0.02

----------
# Test system: Streptococcus Pneumonia 5979
# test name: in vitro antibacterial activity (MIC), agar dilution
# Type: cell-based
# test settings: organism code ZZ; BHI agar, 35-37° C., 20 to 24 hours; unit assumed
Please provide measured MIC for the entries that follow.
One number for each entry, in µg/mL.

Some entries whose results are on file:
>>> meas_value("CC[C@H]1OC(=O)[C@H](C)C(=O)[C@H](C)[C@@H](O[C@@H]2O[C@H](C)C[C@H](N(C)C)[C@H]2O)[C@](C)(OC/C=C/c2cncc(-c3cnc4ccccc4c3)c2)C[C@@H](C)C(=O)[C@H](C)[C@H]2NC(=O)O[C@@]21C")
8
>>> meas_value("CC[C@H]1OC(=O)[C@H](C)C(=O)[C@H](C)[C@@H](O[C@@H]2O[C@H](C)C[C@H](N(C)C)[C@H]2O)[C@](C)(OCC#Cc2ccc(-c3cccc([N+](=O)[O-])c3)s2)C[C@@H](C)C(=O)[C@H](C)[C@H]2NC(=O)O[C@@]21C")
2

Here are 2 molecules. What values of MIC were reported for them?
1. CC[C@H]1OC(=O)[C@H](C)C(=O)[C@H](C)[C@@H](O[C@@H]2O[C@H](C)C[C@H](N(C)C)[C@H]2O)[C@](C)(OC/C=C/c2ccc(-c3nccs3)s2)C[C@@H](C)C(=O)[C@H](C)[C@H]2NC(=O)O[C@@]21C
2. CC[C@H]1OC(=O)[C@H](C)C(=O)[C@H](C)[C@@H](O[C@@H]2O[C@H](C)C[C@H](N(C)C)[C@H]2O)[C@](C)(OC/C=C/c2cnc(-c3ncc(Br)s3)s2)C[C@@H](C)C(=O)[C@H](C)[C@H]2NC(=O)O[C@@]21C

output:
1: 8; 2: 4
